test system: ChaGo-K-1; assay: cells; type: functional, cell-based; settings: Homo sapiens;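 note: growth inhibition of ChaGo-K-1 cells, read out with a cell viability assay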
Description: SANGER: Inhibition of human ChaGo-K-1 cell growth in a cell viability assay.
pIC50: −log10 of the molar value.
Catalogue of compounds with associated pIC50
Reported property: pIC50

O=C(c1cc(Cc2n[nH]c(=O)c3ccccc23)ccc1F)N1CCN(C(=O)C2CC2)CC1 = < 5.30
CN(c1ncccc1CNc1nc(Nc2ccc3c(c2)CC(=O)N3)ncc1C(F)(F)F)S(C)(=O)=O = < 5.59
O=C(NOCC1CC1)c1ccc(F)c(F)c1Nc1ccc(I)cc1Cl = < 5.00
O=c1cc(-c2cccc3c2Sc2ccccc2S3)oc(N2CCOCC2)c1 = < 5.00
Cc1cc([C@@H](C)Nc2ccccc2C(=O)O)c2nc(N3CCOCC3)cc(=O)n2c1 = < 5.29
COc1cc([C@@H]2c3cc4c(cc3[C@@H](O[C@@H]3O[C@@H]5CO[C@@H](C)O[C@H]5[C@H](O)[C@H]3O)[C@H]3COC(=O)[C@H]23)OCO4)cc(OC)c1O [ETOPOSIDE] = 5.42
Nc1ccn([C@@H]2O[C@H](CO)[C@@H](O)[C@@H]2O)c(=O)n1 = < 5.70

====

Parameter pIC50: see the listing below.
tested on: SNU1; test: cells; format: functional, cell-based; settings: Homo sapiens;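 note: growth inhibition of human NCI-SNU-1 cells, measured with a cell viability assay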
Description: SANGER: Inhibition of human NCI-SNU-1 cell growth in a cell viability assay.
pIC50: −log10 of the molar value.
Reported property: pIC50

CN(c1ncccc1CNc1nc(Nc2ccc3c(c2)CC(=O)N3)ncc1C(F)(F)F)S(C)(=O)=O [PF-00562271] = < 5.59
O=C(/C=C/c1ccccc1)NC(NC(=S)Nc1cccc2cccnc12)C(Cl)(Cl)Cl (configuration not stated) [SALUBRINAL] = < 4.80
Cn1cncc1[C@@](N)(c1ccc(Cl)cc1)c1ccc2c(c1)c(-c1cccc(Cl)c1)cc(=O)n2C [TIPIFARNIB] = < 4.80
CC(=O)O[C@@H]1[C@@H](OC(C)=O)[C@@H](O)[C@H](Oc2c(-c3ccc(O)cc3)oc3cc(O)cc(O)c3c2=O)O[C@H]1C = < 5.00
CC1=C2C[C@H]3[C@@H](CC=C4C[C@@H](O)CC[C@@]43C)[C@@H]2CC[C@]12O[C@@H]1C[C@H](C)CN[C@H]1[C@H]2C [CYCLOPAMINE] = < 4.80
O=C1N=C(NCc2cccs2)S/C1=C\c1ccc2ncccc2c1 = 6.14
CS(=O)(=O)CCNCc1ccc(-c2ccc3ncnc(Nc4ccc(OCc5cccc(F)c5)c(Cl)c4)c3c2)o1 [LAPATINIB] = < 5.70
O=c1cc(-c2cccc3c2Sc2ccccc2S3)oc(N2CCOCC2)c1 [KU-55933] = < 5.00
COc1ccc(C2=N[C@@H](c3ccc(Cl)cc3)[C@@H](c3ccc(Cl)cc3)N2C(=O)N2CCNC(=O)C2)c(OC(C)C)c1 [NUTLIN-3] = 5.48
CNC(=O)c1cc(Oc2ccc(NC(=O)Nc3ccc(Cl)c(C(F)(F)F)c3)cc2)ccn1 [SORAFENIB] = 5.64
C=CCc1cccc(/C=N/NC(=O)CN2CCN(Cc3ccccc3)CC2)c1O [PAC-1] = < 5.59
CCc1nc(N)nc(N)c1-c1ccc(Cl)cc1 [PYRIMETHAMINE] = 4.83

====

test system: PC-14; test: cells; assay type: functional, cell-based, Homo sapiens; settings: Homo sapiens, PC-14;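 note: cell viability assay measuring inhibition of PC-14 cell growth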
Description: SANGER: Inhibition of human PC-14 cell growth in a cell viability assay.
Reported property: IC50

O=C(NOCC1CC1)c1ccc(F)c(F)c1Nc1ccc(I)cc1Cl = > 10 µM
Cc1ccc(Nc2nccc(N(C)c3ccc4c(C)n(C)nc4c3)n2)cc1S(N)(=O)=O = > 8 µM
Cn1cc(C2=C(c3ccc(Cl)cc3Cl)C(=O)NC2=O)c2ccccc21 = > 10 µM
CN(C)C/C=C/C(=O)Nc1cc2c(Nc3ccc(F)c(Cl)c3)ncnc2cc1O[C@H]1CCOC1 = 0.0567 µM
CC(=O)O[C@@H]1[C@@H](OC(C)=O)[C@@H](O)[C@H](Oc2c(-c3ccc(O)cc3)oc3cc(O)cc(O)c3c2=O)O[C@H]1C = > 10 µM
CN(Cc1cnc2nc(N)nc(N)c2n1)c1ccc(C(=O)N[C@@H](CCC(=O)O)C(=O)O)cc1 [METHOTREXATE] = > 0.2 µM
O=C(c1cc(Cc2n[nH]c(=O)c3ccccc23)ccc1F)N1CCN(C(=O)C2CC2)CC1 = > 5 µM

====

compounds and their reported IC50
system: CW-2; test: cells; assay type: functional, cell-based, Homo sapiens; settings: Homo sapiens, CW-2;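 note: growth inhibition of CW-2 cells, read out by a cell viability assay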
Description: SANGER: Inhibition of human CW-2 cell growth in a cell viability assay.
Reported property: IC50

C=C1C(=O)O[C@@H]2C3O[C@]3(C)CC/C=C(\C)CC[C@@H]12 (stereo partly drawn) = > 5000 nM
C[C@]1(O)C[C@@H](c2nc(-c3ccc4ccc(-c5ccccc5)nc4c3)c3c(N)nccn32)C1 = > 2560 nM
COc1cc([C@@H]2c3cc4c(cc3[C@@H](O[C@@H]3O[C@@H]5CO[C@@H](C)O[C@H]5[C@H](O)[C@H]3O)[C@H]3COC(=O)[C@H]23)OCO4)cc(OC)c1O [ETOPOSIDE] = > 16000 nM
C=CCc1cccc(/C=N/NC(=O)CN2CCN(Cc3ccccc3)CC2)c1O = > 2560 nM
C=CCNC1=C2C[C@@H](C)C[C@H](OC)[C@H](O)[C@@H](C)/C=C(\C)[C@H](OC(N)=O)[C@@H](OC)/C=C\C=C(/C)C(=O)NC(=CC1=O)C2=O = > 1000 nM
CCC(=O)N1CCN(c2ccc(-n3c(=O)ccc4cnc5ccc(-c6cnc7ccccc7c6)cc5c43)cc2C(F)(F)F)CC1 = > 1200 nM
Cc1cc(Nc2cc(N3CCN(C)CC3)nc(Sc3ccc(NC(=O)C4CC4)cc3)n2)n[nH]1 = > 2000 nM
CO[C@H]1C[C@@H]2CC[C@@H](C)[C@@](O)(O2)C(=O)C(=O)N2CCCC[C@H]2C(=O)O[C@H]([C@H](C)C[C@@H]2CC[C@@H](O)[C@H](OC)C2)CC(=O)[C@H](C)/C=C(\C)[C@@H](O)[C@@H](OC)C(=O)[C@H](C)C[C@H](C)/C=C/C=C/C=C/1C = > 100 nM
COc1cc(F)c(F)c(Nc2ccc(I)cc2F)c1NS(=O)(=O)C1(CC(O)CO)CC1 (stereo not drawn) = > 5000 nM
Cc1ccc(Nc2nccc(N(C)c3ccc4c(C)n(C)nc4c3)n2)cc1S(N)(=O)=O = > 8000 nM
O=C(NOCC1CC1)c1ccc(F)c(F)c1Nc1ccc(I)cc1Cl = > 10000 nM
Cc1cnc(-c2cnc(NCCNc3ccc(C#N)cn3)nc2-c2ccc(Cl)cc2Cl)[nH]1 = > 2560 nM
CCOc1nc(NC(=O)Cc2cc(OC)ccc2OC)cc(N)c1C#N = > 10000 nM

====

system: OE33; assay: cells; assay type: functional, cell-based, Homo sapiens; conditions: Homo sapiens, OE33;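 note: growth inhibition of human OE33 cells, measured by a cell viability assay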
Description: SANGER: Inhibition of human OE33 cell growth in a cell viability assay.
pIC50: −log10 of the molar value.
# pIC50 per record follows
Reported property: pIC50

COc1cc([C@@H]2c3cc4c(cc3[C@@H](O[C@@H]3O[C@@H]5CO[C@@H](C)O[C@H]5[C@H](O)[C@H]3O)[C@H]3COC(=O)[C@H]23)OCO4)cc(OC)c1O [ETOPOSIDE] = 5.29
C[C@]1(O)C[C@@H](c2nc(-c3ccc4ccc(-c5ccccc5)nc4c3)c3c(N)nccn32)C1 = < 5.59
Cc1ccc(Nc2nccc(N(C)c3ccc4c(C)n(C)nc4c3)n2)cc1S(N)(=O)=O = < 5.10
Nc1ccn([C@@H]2O[C@H](CO)[C@@H](O)[C@@H]2O)c(=O)n1 = 5.74
CCOc1nc(NC(=O)Cc2cc(OC)ccc2OC)cc(N)c1C#N = < 5.00
O=C(c1cc(Cc2n[nH]c(=O)c3ccccc23)ccc1F)N1CCN(C(=O)C2CC2)CC1 = < 5.30

====

tested on: RPMI-8226; assay: cells; assay type: functional, cell-based; settings: Homo sapiens
Description: SANGER: Inhibition of human RPMI-8226 cell growth in a cell viability assay.
# IC50 listing for each entry below
Reported property: IC50

COc1cc(F)c(F)c(Nc2ccc(I)cc2F)c1NS(=O)(=O)C1(CC(O)CO)CC1 (centres undefined) = 4.51 µM
C=C1C(=O)O[C@@H]2C3O[C@]3(C)CC/C=C(\C)CC[C@@H]12 (some centres undefined) = > 5 µM
CO[C@H]1C[C@@H]2CC[C@@H](C)[C@@](O)(O2)C(=O)C(=O)N2CCCC[C@H]2C(=O)O[C@H]([C@H](C)C[C@@H]2CC[C@@H](O)[C@H](OC)C2)CC(=O)[C@H](C)/C=C(\C)[C@@H](O)[C@@H](OC)C(=O)[C@H](C)C[C@H](C)/C=C/C=C/C=C/1C = 0.00119 µM
O=c1cc(-c2cccc3c2Sc2ccccc2S3)oc(N2CCOCC2)c1 = > 10 µM
O=C(NOCC1CC1)c1ccc(F)c(F)c1Nc1ccc(I)cc1Cl = > 10 µM
O=C(/C=C/c1ccccc1)NC(NC(=S)Nc1cccc2cccnc12)C(Cl)(Cl)Cl (centres undefined) = > 16 µM
CCC(=O)N1CCN(c2ccc(-n3c(=O)ccc4cnc5ccc(-c6cnc7ccccc7c6)cc5c43)cc2C(F)(F)F)CC1 = 0.00651 µM
CN(c1ncccc1CNc1nc(Nc2ccc3c(c2)CC(=O)N3)ncc1C(F)(F)F)S(C)(=O)=O = > 2.56 µM
C[C@]1(O)C[C@@H](c2nc(-c3ccc4ccc(-c5ccccc5)nc4c3)c3c(N)nccn32)C1 = > 2.56 µM
